Provide the recorded pEC50 for the entries that follow.
# testedSystem: UniProtKB Q99500
# Sequence (Q99500 whole entry): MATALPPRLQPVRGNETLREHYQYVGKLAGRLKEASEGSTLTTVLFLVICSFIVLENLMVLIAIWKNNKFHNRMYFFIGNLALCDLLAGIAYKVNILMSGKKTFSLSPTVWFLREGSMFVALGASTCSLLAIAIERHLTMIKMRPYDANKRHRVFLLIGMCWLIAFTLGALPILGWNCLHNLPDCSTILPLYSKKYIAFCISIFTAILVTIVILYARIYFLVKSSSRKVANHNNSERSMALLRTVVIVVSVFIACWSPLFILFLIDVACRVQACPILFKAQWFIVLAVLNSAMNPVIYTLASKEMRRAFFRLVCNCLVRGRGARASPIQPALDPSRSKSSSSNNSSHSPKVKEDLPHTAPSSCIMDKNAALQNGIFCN
# experimentSummary: Agonist activity at human S1P3R expressed in RBL membranes assessed as [35S]GTPgammaS binding after 30 mins
Give bare numbers, as −log10 of the molar value.

| molecule | pEC50 |
| --- | --- |
| CC(C)Oc1ccc(-c2nc(-c3cccc4c3CN(CCC(=O)O)C4)no2)cc1Cl | 5.10 |
| CC(C)Oc1ccc(-c2nc(-c3cccc4c3CCNC4CC(=O)O)no2)cc1C#N (stereo not given) | 4.90 |
| CC(C)Oc1ccc(-c2nc(-c3cccc4c3CN(CCCC(=O)O)C4)no2)cc1Cl | 5.70 |
| CC(C)Oc1ccc(-c2nc(-c3ccc4c(c3)CN(CCCC(=O)O)CCO4)no2)cc1C#N | 4.60 |
| CC(C)Oc1ccc(-c2nc(-c3ccc4c(c3)CCN(CCC(=O)O)C4)no2)cc1C#N | 5.40 |

Consider the molecule shown here: `CC(C)Oc1ccc(-c2nc(-c3ccc4c(c3)CNCCO4)no2)cc1C#N` What is its recorded pEC50? 5.20

---

Please respond with reported Papp for every item in the list.
# experimentSummary: Permeability in MDCK cells
# Assay type: ADME, cell-based, Canis lupus familiaris
# experimentalSetup: dog, read-out: permeability
Numbers only, in ×10⁻⁶ cm/s.

Worked examples follow.
| testSmiles | unitOfMeasure | Papp |
| --- | --- | --- |
| CC(C)Oc1ccc(-c2nc(-c3cccc4c3OCCN(CCCC(=O)O)C4)no2)cc1Cl | ×10⁻⁶ cm/s | 15.5 |
| CC(C)Oc1ccc(-c2nc(-c3cccc4c3cnn4CCC(=O)[O-])no2)cc1Cl.[Na+] | ×10⁻⁶ cm/s | 20.3 |

Consider the compound `CC(C)Oc1ccc(-c2nc(-c3ccc4c(c3)CCN(CCCC(=O)O)CC4)no2)cc1C#N` and give its measured Papp. 15

---

# testedSystem: Albumin (Homo sapiens)
# Sequence (P02768 whole entry): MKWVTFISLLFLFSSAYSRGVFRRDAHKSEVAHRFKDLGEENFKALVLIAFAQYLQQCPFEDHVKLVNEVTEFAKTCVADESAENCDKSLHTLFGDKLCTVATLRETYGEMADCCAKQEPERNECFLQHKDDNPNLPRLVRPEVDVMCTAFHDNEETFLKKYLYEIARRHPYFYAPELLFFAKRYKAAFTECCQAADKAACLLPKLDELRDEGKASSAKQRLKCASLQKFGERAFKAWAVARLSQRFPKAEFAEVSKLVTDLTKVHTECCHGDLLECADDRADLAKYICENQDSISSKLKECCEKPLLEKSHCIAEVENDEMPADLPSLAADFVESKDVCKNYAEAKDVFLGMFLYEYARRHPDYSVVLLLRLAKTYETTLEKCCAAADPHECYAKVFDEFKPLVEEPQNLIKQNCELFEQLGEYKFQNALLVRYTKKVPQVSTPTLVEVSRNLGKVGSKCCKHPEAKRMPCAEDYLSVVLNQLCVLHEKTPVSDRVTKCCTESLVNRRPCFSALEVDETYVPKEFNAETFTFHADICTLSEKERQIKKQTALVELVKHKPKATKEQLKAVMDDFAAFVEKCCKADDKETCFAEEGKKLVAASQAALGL
# experimentSummary: Fraction unbound as a percentage in human serum albumin
# Format: ADME
Give fraction unbound for every item shown.
Answers are plain numbers.

| testSmiles | measuredQuantity | measuredNumber |
| --- | --- | --- |
| O=C(O)c1cnn(Cc2ccc(-c3noc(-c4cc(-c5ccccc5)c(C(F)(F)F)s4)n3)cc2)c1 | fraction unbound | 0.01 |
| CC(C)Oc1ccc(-c2nc(-c3ccc4c(cnn4CCC(=O)O)c3)no2)cc1Cl | fraction unbound | 0.013 |

Could you now consider this next molecule?
Requested field: fraction unbound. Item: `CC(C)Oc1ccc(-c2nc(-c3cccc4c3cnn4CCC(=O)[O-])no2)cc1Cl.[Na+]` 0.012

---

# experimentSummary: Clearance in CD rat at 1 mg/kg, iv or 3 mg/kg, po using DMSO/10%(w/v) Kleptose, 0.9% saline(aq) (2%/98%)
# Format: ADME, organism-based
# experimentalSetup: in vivo
Answer each item with its documented clearance.
Numbers only, in mL/min/kg.

Answer for every listed entry: what is its clearance? The entries follow.
1. CC(C)Oc1ccc(-c2nc(-c3cccc4c3cnn4CCC(=O)[O-])no2)cc1Cl.[Na+]
2. CC(C)Oc1ncc(-c2nc(-c3cccc4c3OCCNC4CCCC(=O)O)no2)cc1Cl (stereo in doubt; 31b)

1. 2
2. 0.71

Value sought for every listed compound: clearance.
1. CC(C)Oc1ccc(-c2nc(-c3cccc4c3CCNC4CC(=O)O)no2)cc1Cl (stereo not given)
2. CC(C)Oc1ccc(-c2nc(-c3cccc4c3OCCN(CCCC(=O)O)C4)no2)cc1Cl
3. CC(C)Oc1ccc(-c2nc(-c3ccc4c(c3)CCN(CCCC(=O)O)CC4)no2)cc1C#N

[5, 7, 7]

---

# experimentSummary: Intrinsic clearance in dog hepatocyte
# Type: ADME, cell-based, Canis lupus familiaris
# experimentalSetup: hepatocytes
measuredQuantity: CLH (mL/min/g)
Numbers only, in mL/min/g.

In the examples that follow, each entry is paired with its recorded CLH.
| compound | CLH (mL/min/g) |
| --- | --- |
| CC(C)Oc1ncc(-c2nc(-c3cccc4c3OCCNC4CCCC(=O)O)no2)cc1Cl (single isomer, unassigned; enantiomer 1) | 4 |
| CC(C)Oc1ncc(-c2nc(-c3cccc4c3OCCNC4CCCC(=O)O)no2)cc1Cl (stereo in doubt; 31b) | 1.7 |

Name the recorded CLH for `CC(C)Oc1ccc(-c2nc(-c3cccc4c3OCCN(CCCC(=O)O)C4)no2)cc1Cl` . 8.3

---

# experimentSummary: Chromatographic hydrophobicity index, log D of the compound at pH 10.5
# Type: physicochemical
# experimentalSetup: buffer
measuredQuantity: chromatographic logD

| molecule | chromatographic logD |
| --- | --- |
| CC(C)Oc1ccc(-c2nc(-c3cccc4c3CCNC4CC(=O)O)no2)cc1C#N (configuration not stated) | 1.27 |

Continue with the next molecule.
Which chromatographic logD value belongs to CC(C)Oc1ccc(-c2nc(-c3cccc4c3CCNC4CC(=O)O)no2)cc1Cl (configuration not stated) ? 1.73

---

# testedSystem: Sphingosine 1-phosphate receptor 1 (Homo sapiens, UniProt P21453)
# Sequence (P21453 whole entry): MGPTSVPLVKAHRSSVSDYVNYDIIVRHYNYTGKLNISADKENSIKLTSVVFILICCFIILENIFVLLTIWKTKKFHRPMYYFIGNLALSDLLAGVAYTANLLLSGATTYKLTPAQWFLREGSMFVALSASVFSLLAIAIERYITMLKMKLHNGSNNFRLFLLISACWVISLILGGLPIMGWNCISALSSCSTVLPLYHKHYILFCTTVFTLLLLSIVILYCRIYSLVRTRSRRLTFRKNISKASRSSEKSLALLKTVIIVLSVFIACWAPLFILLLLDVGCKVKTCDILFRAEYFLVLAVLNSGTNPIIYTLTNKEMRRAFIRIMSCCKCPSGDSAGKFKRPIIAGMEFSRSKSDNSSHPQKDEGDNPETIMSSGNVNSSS
# experimentSummary: Agonist activity at human S1P1R expressed in RH7777 membranes assessed as [35S]GTPgammaS binding after 30 mins
measuredQuantity: pEC50
Give bare numbers, as −log10 of the molar value.

| molecule | pEC50 |
| --- | --- |
| CC(C)Oc1ccc(-c2nc(-c3ccc4c(c3)CCCNC4)no2)cc1C#N | 6.90 |

Provide each entry's pEC50 from the list below.
1. CC(C)Oc1ccc(-c2nc(-c3cccc4c3CCN(CCC(=O)O)CC4)no2)cc1Cl
2. CC(C)Oc1ccc(-c2nc(-c3ccc4c(c3)CNC(C(=O)O)CO4)no2)cc1Cl (stereo unspecified)
3. CC(C)Oc1ccc(-c2nc(-c3ccc4c(c3)OCCNC4)no2)cc1Cl
4. CC(C)Oc1ccc(-c2nc(-c3cccc4c3CN(CCC(=O)O)C4)no2)cc1Cl
5. CC(C)Oc1ccc(-c2nc(-c3ccc4c(c3)CN(CCC(=O)O)CCO4)no2)cc1Cl
6. CC(C)Oc1ccc(-c2nc(-c3cccc4c3OCCN(CCCC(=O)O)C4)no2)cc1Cl
7. CC(C)Oc1ccc(-c2nc(-c3cccc4c3CCCNC4)no2)cc1Cl

1. 6.80
2. 8.30
3. 6.50
4. 6.50
5. 6.90
6. 7.40
7. 6.20

Count: 4. Required value per item: pEC50.
1. CC(C)Oc1ncc(-c2nc(-c3cccc4c3OCCNC4CCCC(=O)O)no2)cc1Cl (single isomer, unassigned; enantiomer 1)
2. CC(C)Oc1ccc(-c2nc(-c3cccc4c3CCNC4)no2)cc1Cl
3. CC(C)Oc1ccc(-c2nc(-c3ccc4c(c3)CN(CCC(=O)O)CCO4)no2)cc1C#N
4. CC(C)Oc1ccc(-c2nc(-c3ccc4c(c3)CCCNC4)no2)cc1Cl

1: 7.40; 2: 7.40; 3: 7.30; 4: 6.40

Provide each entry's pEC50 from the list below.
1. CC(C)Oc1ccc(-c2nc(-c3cccc4c3OCCNC4CCCC(=O)O)no2)cc1Cl (stereo unspecified)
2. CC(C)Oc1ccc(-c2nc(-c3ccc4c(c3)CNCCO4)no2)cc1Cl

1. 8.00
2. 6.90

// each listed molecule needs a value for pEC50
1. CC(C)Oc1ccc(-c2nc(-c3ccc4c(c3)CCNC4)no2)cc1C#N
2. CC(C)Oc1ccc(-c2nc(-c3cccc4c3CCNCC4)no2)cc1Cl

1: 8.40; 2: 7.80

---

# experimentSummary: Oral bioavailability in C57BL/6 mouse at 3 mg/kg using DMSO/1% methylcellulose 1:99 (w/v)
# Assay type: ADME, organism-based
# experimentalSetup: in vivo
measuredQuantity: bioavailability (%)
Give bare numbers, in %.

# query: bioavailability of entry `CC(C)Oc1ccc(-c2nc(-c3ccc4c(c3)CCNCC4)no2)cc1Cl` 59

---

# experimentSummary: Half life in CD rat at 1 mg/kg, iv or 3 mg/kg, po using DMSO/10%(w/v) Kleptose, 0.9% saline(aq) (2%/98%)
# Assay type: ADME, organism-based
# experimentalSetup: in vivo
Please provide measured half-life for the entries that follow.
Numbers only, in h.

| compound | half-life, h |
| --- | --- |
| CC(C)Oc1ccc(-c2nc(-c3cccc4c3OCCN(CCCC(=O)O)C4)no2)cc1Cl | 3 |

Field: half-life. Fill in for each record below.
1. CC(C)Oc1ccc(-c2nc(-c3cccc4c3cnn4CCC(=O)[O-])no2)cc1Cl.[Na+]
2. CC(C)Oc1ccc(-c2nc(-c3cccc4c3CCNC4CC(=O)O)no2)cc1Cl (stereo not given)
3. CC(C)Oc1ncc(-c2nc(-c3cccc4c3OCCNC4CCCC(=O)O)no2)cc1Cl (stereo in doubt; 31b)
4. CC(C)Oc1ccc(-c2nc(-c3ccc4c(c3)CCN(CCCC(=O)O)CC4)no2)cc1C#N

[7.5, 6.7, 6.6, 2.6]
